Reported self-splicing fitness (ln) values are given for each entry in this list.
- Experiment summary: self-splicing fitness, log relative to wild type (ln ratio); higher = more splicing; Tetrahymena group I intron in knt gene, E. coli kanamycin selection, DiMSum; sequences stand for … in CUCUCU…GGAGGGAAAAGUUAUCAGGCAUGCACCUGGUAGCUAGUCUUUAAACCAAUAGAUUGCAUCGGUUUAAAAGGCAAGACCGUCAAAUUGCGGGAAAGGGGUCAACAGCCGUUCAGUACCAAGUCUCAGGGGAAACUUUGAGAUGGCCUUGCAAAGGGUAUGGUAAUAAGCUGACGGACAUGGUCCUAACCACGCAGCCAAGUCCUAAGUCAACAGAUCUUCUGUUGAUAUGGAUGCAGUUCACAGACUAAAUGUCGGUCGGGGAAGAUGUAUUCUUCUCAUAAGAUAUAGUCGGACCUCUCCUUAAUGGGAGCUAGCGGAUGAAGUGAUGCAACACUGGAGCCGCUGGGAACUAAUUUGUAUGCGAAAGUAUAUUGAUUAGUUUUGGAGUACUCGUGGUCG;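 further: selection with 25 µg/mL kanamycin versus none on LB agar overnight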
- Run conditions: 37 °C
Answer with the value's number alone.

Field: example entries. Status: answers known.
sequence_data=GGGUAGCAAUAUUACGACGG recorded_number=-1.18
sequence_data=CUGAAGCAAUAUUACGCAGA recorded_number=-2.71
sequence_data=CUCGAGCAAUAUUACGCGUC recorded_number=-2.79
sequence_data=UGAUAGCAAUAUUACGGUAA recorded_number=-1.62
sequence_data=GAGAAGCAAUAUUACGUGCG recorded_number=-1.02
sequence_data=AGGAAGCAAUAUUACGCAUU recorded_number=-2.13
sequence_data=UUUCAGCAAUAUUACGCUAA recorded_number=-0.815
sequence_data=GGCCAGCAAUAUUACGUUGG recorded_number=-3.17

Exam item: Any idea what its self-splicing fitness (ln) is? The sequence is `UCAAAGCAAUAUUACGACGA`
Marked response: 0.278

Exam item: May I ask what self-splicing fitness (ln) has been recorded for `GGCCAGCAAUAUUACGCUCA` ?
Marked response: -0.183

Exam item: Form field: reported self-splicing fitness (ln) of `CGCUAGCAAUAUUACGCGUU`
Marked response: -2.51

Exam item: For the sequence `AAGGAGCAAUAUUACGGCUG` , what self-splicing fitness (ln) is on record?
Marked response: -1.37
